Test system: S. aureus VRS1 MRSA VAN resistant
experimentalProtocol: MIC, S. aureus VRS1
Assay type: cell-based
experimentalContext: Staphylococcus aureus, Table 2
propertyLabel: MIC

Worked examples, 3 compounds total:
Cc1c(-c2cc(F)c(CO)cc2F)ccc2c3ocnc3c(=O)n(C3CC3)c12 :: < 1 µg/mL
Cc1nc2c(=O)n(C3CC3)c3cc(-c4ccc(CN)c(F)c4)c(F)cc3c2o1 :: 10 to 100 µg/mL
Cc1c(-c2cc(F)c(N)cc2F)ccc2c3oc(CN)nc3c(=O)n(C3CC3)c12 :: 1 to 10 µg/mL

Query MIC for `Cc1nc2c(=O)n3c4c(c(N5CC[C@H](CN)C5)c(F)cc4c2o1)OC[C@@H]3C`
1 to 10 µg/mL

Query MIC for `Cc1nc2c(=O)n(C3CC3)c3c(C)c(-c4ccc5cn[nH]c5c4)ccc3c2o1`
10 to 100 µg/mL

Query MIC for Cc1nc2c(=O)n3c4c(c(N5CCC(CN)C5)c(F)cc4c2o1)OC[C@@H]3C (some centres unmarked)
1 to 10 µg/mL

Query MIC for `C[C@H]1COc2c(-c3cc(F)c(N)cc3F)ccc3c4ocnc4c(=O)n1c23`
1 to 10 µg/mL

Query MIC for `C[C@H]1COc2c(-c3ccc(N)nc3)ccc3c4ocnc4c(=O)n1c23`
1 to 10 µg/mL

Query MIC for `Cc1nc2c(=O)n(C3CC3)c3c(C)c(-c4ccc(N)nc4)ccc3c2o1`
10 to 100 µg/mL

Query MIC for `Cc1nc2c(=O)n(C3CC3)c3c(C)c(-c4ccc(CN)c(F)c4)ccc3c2o1`
10 to 100 µg/mL

Query MIC for `Cc1c(-c2cc(F)c(N)cc2F)ccc2c3scnc3c(=O)n(C3CC3)c12`
< 1 µg/mL

Query MIC for `Cc1c(-c2cc(F)c(N)cc2F)ccc2c3ocnc3c(=O)n(C3CC3)c12`
< 1 µg/mL

Query MIC for `Cc1c(-c2ccc3[nH]ncc3c2)ccc2c3scnc3c(=O)n(C3CC3)c12`
< 1 µg/mL

Query MIC for `Cc1nc2c(=O)n(C3CC3)c3c(C)c(-c4ccc(C(N)=O)cc4)ccc3c2o1`
1 to 10 µg/mL

---

System: Staphylococcus aureus ATCC 29213
experimentalProtocol: MIC, broth microdilution, S. aureus ATCC 29213
Format: cell-based
experimentalContext: ATCC 29213 / MSSA, Table 2, read-out: MIC S. aureus (MSSA) ATCC 29213 CLSI control strain
This section presents compounds with their documented MIC values.

NC1C2CN(c3nc4c(cc3F)c3ocnc3c(=O)n4C3CC3)CC12 (centres unmarked) :: 10 to 100 mg/L
Cc1nc2c(=O)n(C3CC3)c3c(C)c(-c4ccc(CN)c(F)c4)ccc3c2o1 :: < 1 mg/L

Query MIC for `Cc1nc2c(=O)n3c4c(c(N5CC[C@H](CN)C5)c(F)cc4c2o1)OC[C@@H]3C`
1 to 10 mg/L

---

System: Staphylococcus aureus ATCC 29213
experimentalProtocol: MIC, broth microdilution, S. aureus ATCC 29213
Format: cell-based
experimentalContext: ATCC29213, Table 1, wild type strain, read-out: MIC S. aureus ATCC 29213
This section presents compounds with their documented MIC values.

Cc1nc2c(=O)n(C3CC3)c3c(C)c(-c4cn[nH]c4)ccc3c2o1 :: 1 to 10 µg/mL
Cc1nc2c(=O)n3c4c(c(N5CCN(C)CC5)c(F)cc4c2o1)OC[C@@H]3C :: 10 to 100 µg/mL
Cc1c(-c2cc(F)c(N)cc2F)ccc2c3oc(=O)[nH]c3c(=O)n(C3CC3)c12 :: 1 to 10 µg/mL
CCOC(=O)CNC(=O)c1ccc(-c2ccc3c4ocnc4c(=O)n(C4CC4)c3c2C)cc1 :: 1 to 10 µg/mL
Cc1nc2c(=O)n3c4c(c(N5CCC(CN)C5)c(F)cc4c2o1)OC[C@@H]3C (some centres unmarked) :: < 1 µg/mL

Query MIC for `C[C@H]1COc2c(-c3ccc(C(N)=O)cc3)ccc3c4ocnc4c(=O)n1c23`
1 to 10 µg/mL

Query MIC for `Cc1c(-c2ccc(NCc3ccccc3)nc2)ccc2c3ocnc3c(=O)n(C3CC3)c12`
1 to 10 µg/mL

Query MIC for `Cc1c(-c2ccc(C(=O)O)cc2)ccc2c3oc(CN)nc3c(=O)n(C3CC3)c12`
1 to 10 µg/mL

---

Test system: Staphylococcus aureus ATCC 29213
experimentalProtocol: MIC, broth microdilution, S. aureus ATCC 29213
Type: cell-based
experimentalContext: ATCC 29213 / MSSA, Table 2, read-out: MIC S. aureus (MSSA) ATCC 29213 CLSI control strain
This section presents molecules with their documented MIC values.

Worked examples, 5 molecules total:
N#Cc1c(F)cc(-c2cc3c(cc2F)c2ocnc2c(=O)n3C2CC2)cc1F [Compound 65] :: 1 to 10 µg/mL
Cc1nc2c(=O)n(C3CC3)c3cc(-c4ccc(C=O)cc4)c(F)cc3c2o1 [Compound 72] :: 10 to 100 µg/mL
Cc1c(-c2cc(F)c(C(=O)O)cc2F)ccc2c3ocnc3c(=O)n(C3CC3)c12 [Compound 47] :: 10 to 100 µg/mL
Cc1nc2c(=O)n(C3CC3)c3cc(N4CCC(O)C4)c(F)cc3c2o1 (centres unmarked) [Compound 53] :: 10 to 100 µg/mL
CNC(=O)c1ccc(-c2cc3c(cc2F)c2ocnc2c(=O)n3C2CC2)cc1F [Compound 67] :: 1 to 10 µg/mL

Report MIC under test system Staphylococcus aureus ATCC 29213 for Cc1nc2c(=O)n3c4c(c(N5CC[C@@H](CN)C5)c(F)cc4c2o1)OC[C@@H]3C [Compound 90] .
< 1 µg/mL

Report MIC under test system Staphylococcus aureus ATCC 29213 for Cc1c(-c2ccc3[nH]cnc3c2)ccc2c3ocnc3c(=O)n(C3CC3)c12 [Compound 15] .
< 1 µg/mL

Report MIC under test system Staphylococcus aureus ATCC 29213 for Cc1nc2c(=O)n(C3CC3)c3nc(-c4ccc5[nH]ncc5c4)c(F)cc3c2o1 [Compound 87] .
10 to 100 µg/mL

---

System: Staphylococcus aureus ATCC 29213
experimentalProtocol: MIC, broth microdilution, S. aureus ATCC 29213
Assay type: cell-based
experimentalContext: ATCC29213, Table 1, wild type strain, read-out: MIC S. aureus ATCC 29213
propertyLabel: MIC

Worked examples, 2 compounds total:
CCn1c(=O)c2ncoc2c2cc(F)c(-c3ccc(N)c(F)c3)c(C)c21 :: 10 to 100 µg/mL
Cc1nc2c(=O)n(C3CC3)c3c(C)c(-c4cnn(C5CNC5)c4)ccc3c2o1 :: 1 to 10 µg/mL

Now consider the entry below.
Report MIC under test system Staphylococcus aureus ATCC 29213 for `Cc1nc2c(=O)n(C3CC3)c3cc(-c4ccncc4F)c(F)cc3c2o1` .
10 to 100 µg/mL

---

Test system: Staphylococcus aureus ATCC 29213
experimentalProtocol: MIC, broth microdilution, S. aureus ATCC 29213
Type: cell-based
experimentalContext: ATCC29213, Table 1, wild type strain, read-out: MIC S. aureus ATCC 29213
This section presents compounds with their documented MIC values.

Worked examples, 3 compounds total:
Cc1nc2c(=O)n(C3CC3)c3c(C)c(-c4cc(F)c(N)cc4F)ccc3c2o1 [Compound 4] :: < 1 µg/mL
CNC(=O)c1ccc(-c2cc3c(cc2F)c2ocnc2c(=O)n3C2CC2)cc1F [Compound 67] :: 1 to 10 µg/mL
Cc1c(-c2cnc3[nH]ncc3c2)ccc2c3ocnc3c(=O)n(C3CC3)c12 [Compound 20] :: < 1 µg/mL

Now consider the entry below.
Query MIC for Cc1nc2c(=O)n(C3CC3)c3c(C)c(-c4ccc(CN)c(F)c4)ccc3c2o1 [Compound 36]
< 1 µg/mL

---

Tested on: Haemophilus influenzae ATCC 49247
experimentalProtocol: MIC, H. influenzae ATCC 49247
Type: cell-based
experimentalContext: ATCC49247, Table 4
propertyLabel: MIC

C[C@H]1COc2c(-c3ccc(C(N)=O)cc3)ccc3c4ocnc4c(=O)n1c23 [Compound 96] :: 1 to 10 µg/mL

Query MIC for CCn1c(=O)c2ncoc2c2cc(F)c(-c3ccc(N)nc3)c(C)c21 [Compound 106]
10 to 100 µg/mL

Query MIC for Cc1nc2c(=O)n3c4c(c(N5CCC(CN)C5)c(F)cc4c2o1)OC[C@@H]3C (stereo partly shown) [Compound 88]
1 to 10 µg/mL

Query MIC for Cc1nc2c(=O)n(C3CC3)c3cc(N4CCC(N)CC4)c(F)cc3c2o1 [Compound 49]
1 to 10 µg/mL

---

Test system: Staphylococcus aureus ATCC 29213
experimentalProtocol: MIC, broth microdilution, S. aureus ATCC 29213
Format: cell-based
experimentalContext: ATCC29213, Table 1, wild type strain, read-out: MIC S. aureus ATCC 29213
propertyLabel: MIC

Worked examples, 5 molecules total:
NC1C2CN(c3nc4c(cc3F)c3ocnc3c(=O)n4C3CC3)CC12 (centres unmarked) :: 10 to 100 µg/mL
Cc1c(-c2ccc3[nH]ncc3c2)ccc2c3ocnc3c(=O)n(C3CC3)c12 :: < 1 µg/mL
Cc1c(-c2cc(F)c(C(=O)O)cc2F)ccc2c3ocnc3c(=O)n(C3CC3)c12 :: 10 to 100 µg/mL
Cc1nc2c(=O)n(C3CC3)c3cc(-c4ccncc4)c(F)cc3c2o1 :: 1 to 10 µg/mL
CCn1c(=O)c2ncoc2c2cc(F)c(-c3cc(F)c(N)cc3F)c(C)c21 :: 1 to 10 µg/mL

Report MIC under test system Staphylococcus aureus ATCC 29213 for `Cc1nc2c(=O)n(C3CC3)c3cc(-c4cc(F)c(N)cc4F)c(F)cc3c2o1` .
< 1 µg/mL

Report MIC under test system Staphylococcus aureus ATCC 29213 for `CN(C)C(=O)c1ccc(-c2cc3c(cc2F)c2ocnc2c(=O)n3C2CC2)cc1` .
1 to 10 µg/mL

Report MIC under test system Staphylococcus aureus ATCC 29213 for Cc1c(-c2cc(F)c(C(C)O)cc2F)ccc2c3ocnc3c(=O)n(C3CC3)c12 (centres unmarked) .
< 1 µg/mL
